System: MKK7 (Homo sapiens)
Construct: GST or His-tagged kinase from Reaction Biology (33PanQinase assay)
Sequence (O14733 2-419): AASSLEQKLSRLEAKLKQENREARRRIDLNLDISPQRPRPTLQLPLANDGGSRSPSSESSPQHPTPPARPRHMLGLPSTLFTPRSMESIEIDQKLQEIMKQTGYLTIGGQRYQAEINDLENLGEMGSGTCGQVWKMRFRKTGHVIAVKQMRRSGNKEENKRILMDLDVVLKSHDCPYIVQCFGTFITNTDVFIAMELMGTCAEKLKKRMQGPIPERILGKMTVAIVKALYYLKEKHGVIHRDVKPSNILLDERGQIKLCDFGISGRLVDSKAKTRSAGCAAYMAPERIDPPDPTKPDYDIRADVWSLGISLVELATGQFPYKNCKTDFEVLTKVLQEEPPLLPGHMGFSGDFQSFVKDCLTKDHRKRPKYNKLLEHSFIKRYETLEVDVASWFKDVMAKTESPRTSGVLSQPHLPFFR
Experiment description: radiometric […] kinase assay ([…]PanQinase)
Assay conditions: 3 μM ATP, 75.6 nM MKK7, JNK1 K55R K56R substrate; 3 mM MgCl2, 3 mM MnCl2, pH 7.5, 30 °C; 30 min preincubation; reversible covalent (imine, Lys221)
Measured parameter: IC50 (nM)
Numbers only, in nM.

// query IC50 value for entry O=Cc1ccc(-c2n[nH]c3ccccc23)cc1O 738
